Target: T1, B7-H3 antigen H4M (human 4Ig B7-H3 amino acids 27-461 with N-terminal 10 His tag and C-terminal Myc tag) (human, UniProt Q5ZPR3 27-461, Biotinylated in the phage ELISA (labeling amount approximately 2.5, sites not stated); not biotinylated in the scFv protein ELISA)
T1 construct: Expressed in Expi293; also called biotinylated B7-H3 antigen H4M; not shown: any linker between the tags and the B7-H3 part is not described
T1 sequence: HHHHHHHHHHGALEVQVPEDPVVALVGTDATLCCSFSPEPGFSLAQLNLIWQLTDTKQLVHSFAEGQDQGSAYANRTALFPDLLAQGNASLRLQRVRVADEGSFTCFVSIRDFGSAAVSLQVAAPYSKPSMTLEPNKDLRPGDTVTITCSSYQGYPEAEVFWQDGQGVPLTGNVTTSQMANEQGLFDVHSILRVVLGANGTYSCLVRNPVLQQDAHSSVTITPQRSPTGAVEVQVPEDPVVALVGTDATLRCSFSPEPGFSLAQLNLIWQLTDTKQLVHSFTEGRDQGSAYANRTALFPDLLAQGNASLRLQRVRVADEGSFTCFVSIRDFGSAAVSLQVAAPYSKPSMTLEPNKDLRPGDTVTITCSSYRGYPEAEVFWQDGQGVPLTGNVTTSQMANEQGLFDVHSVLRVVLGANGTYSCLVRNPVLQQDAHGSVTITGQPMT
Assay: phage ELISA, scFv displayed on phage, biotinylated H4M captured on streptavidin
PARAMETER_MEASURED: ELISA signal value of Phage scFv (absorbance 450 nm)
API: value field is a number in absorbance 450 nm; no unit string.

Given item P1G2 scFv (scFv) scFv: QVQLQQSGAEVKKPGSSVKVSCKASGGTFSSYAISWVRQAPGQGLEWMGRIIPILGIANYAQKFQGRVTITADKSTSTAYMELSSLRSEDTAVYYCAVNYYDSSGYYSDYWGQGTLVTVSSGSASAPTLGQGGGGGSGGGGSGGGGSSYELTQPPSASGSPGQSVTISCTGTSSDVGGYNYVSWYQQHPGKAPRLMIYGVSQRPSGVPDRFSGSKSGNTASLTVSGLQAEDEADYYCSSYANNNYVFGTGTKVTVL , the value recorded as its ELISA signal value of Phage scFv is 3.55
